Test: protein stability index of a GFP-peptide fusion (yeast GPS) (PSI 1-4); higher = more stable; sorted into four equal gates, so the index is relative within each strain
Details: doa10∆
measured metric: protein stability index
Answers are plain numbers.

# sequence code, protein stability index
measured = [
    ("IHGQDFQFFPKELDALQ [ISW2]", 2.62),
    ("PSQGMVVEISNGNTSSK [FAS1]", 3.08),
    ("APIPKQLLQRIPNIPPN [GAL11]", 2.69),
    ("RQQAYKTAQTLDENLNS [YJL041W/NSP1]", 2.84),
    ("KVCECVCMHCGKLLLDE [RPO21]", 2.96),
]

Batch request: protein stability index per item, same order as input.
1. QKNDTAAFKDIAKRQFK [RRP40]
2. KNRRRIHGELKTYKEGI [SMC1]
3. QLVLRGLLSQAIGCIER [YJR042W/NUP85]
4. FKRVSQTFEAKLHFKDT [NUT1]

Result:
2.95
3.23
1.98
2.96

Batch request: protein stability index per item, same order as input.
1. LQPVIPGGAASKSVPTP [SNF5]
2. VNEDPIFHPMIHYSWSF [YML103C/NUP188]
3. GTTATGTGLFGQQTAQP [YGR119C/NUP57]
4. EEVNRCYLRWQHLRNEH [SNF2]
5. YPVRIPRLDTSKEFSAY [YJR042W/NUP85]
6. DGKLIDISGTMSGGGNH [SMC4]

Result:
1: 2.93; 2: 2.56; 3: 2.91; 4: 3.27; 5: 2.84; 6: 3.42

Batch request: protein stability index per item, same order as input.
1. PQAVTITSIMDDLALPY [ITC1]
2. VPVANQFINLAGYKKLG [QCR7]
3. VPRAALEERFDPKSPTK [YMR129W/POM152]
4. MFDAFVSFYFEDGTIES [SIN4]
5. ELGEFFVNGVATSFSRK [FAS2]
6. FNVDDVLKFTFTGEKPI [MED8]
7. LNSYHIKNGRIYFTVPN [RGR1]

Result:
2.85
1.97
3.15
2.33
2.98
3.16
2.57

Batch request: protein stability index per item, same order as input.
1. WSFEEVEVKDASLVDYV [RPS5]
2. LRKIQALRDVKNNNNAN [GAL11]
3. FSFSKSEEERKSSPISN [YOR098C/NUP1]
4. DEESLVKYMPEQKITEI [RPO21]

Result:
1: 1.32; 2: 3.05; 3: 2.48; 4: 3.23

Batch request: protein stability index per item, same order as input.
1. INVETVYDIMALEDEER [BRR2]
2. NMMEHWDYLQLTVAMYI [RPO31]
3. WNLNATKPNVLNDPSLK [SIN4]
4. RYFFWLQEKNSGNLPLN [RPN13]

Result:
1: 2.99; 2: 2.08; 3: 3; 4: 3.04

Batch request: protein stability index per item, same order as input.
1. MGNTKVHCRISCQIAQP [RRP45]
2. NVAKNMKTPSLTVYLEP [RPO21]
3. LESYKTQAKKLYHHTTK [SRP72]
4. QYYRGLPLYEKNTLLER [SWP82]

Result:
1. 1.64
2. 3.07
3. 2.29
4. 3.13

Batch request: protein stability index per item, same order as input.
1. LFGSSNNNNNNNNSNNI [YGL172W/NUP49]
2. RGGFGGRNRGRPNRRGP [RPS2]
3. ARVILYLKNVLFAFNGV [SIN4]
4. ESLTFNEFQLQWGKYQT [SWI1]

Result:
1: 2.93; 2: 3.37; 3: 2.38; 4: 2.86

Batch request: protein stability index per item, same order as input.
1. YQKKQYKDSLALINDLL [RPN6]
2. TFKSVSKYGMLLLRCDD [POP3]
3. TDLNQDSAAIIAATGLN [GRR1]
4. AINIMNRSNDALIKFME [FAS2]
5. STPENVPRLFDLVKPKN [SMC4]
6. SYFSPINSSNEALVQAF [YCG1]

Result:
1. 2.4
2. 1.89
3. 1.62
4. 3.19
5. 2.65
6. 2.33

###

Test: protein stability index of a GFP-peptide fusion (yeast GPS) (PSI 1-4); higher = more stable; sorted into four equal gates, so the index is relative within each strain
Details: doa10∆
measured metric: protein stability index
Numbers only.

# sequence code, protein stability index
records = [
    ("TSDSESTLYKYLKESKR [SWI3]", 3.11),
    ("NYKGLPKKYKENNTDSA [SMC1]", 3.32),
    ("KKDQSVLKSHSNDFEEG [YMR129W/POM152]", 2.59),
    ("NVRMDTMANILYYPQKP [RPB2]", 2.83),
]

Batch request: protein stability index per item, same order as input.
1. WCQEAFPSSETTSLNPI [BRR2]
2. ARSGLRIGRIEDVTPVP [RPS14A]
3. RVRAESLHSNSFSLTVS [YJL039C/NUP192]
4. LDRISSYTAFSRLTLLL [PRP8]
5. KSKSSLDGKFSLFHTAV [RPN2]
6. VEIEKRILKLGTQLATL [YGR119C/NUP57]
7. TNIHEPQYINYSSIPSL [SSN2]
8. VDKIFEKVNNNATLTPN [SWI1]

Result:
[3.23, 2.69, 1.74, 1.86, 2.86, 2.11, 2.89, 3.09]

###

Assay: protein stability index of a GFP-peptide fusion (yeast GPS) (PSI 1-4); higher = more stable; sorted into four equal gates, so the index is relative within each strain
Conditions: ubr1∆
I'd be grateful if you could share measured protein stability index for these entries.
Numbers only.

# sequence code, protein stability index
data = [
    ("QIAFDLVSSASQQLLEI [RPN2]", 1.69),
]

Batch request: protein stability index per item, same order as input.
1. LSEDELRELDVELIESK [SMC4]
2. GEFSGKNFSPTKRVEKP [RRP6]
3. EELRKHAQKRVSNASAR [SKI6]
4. PSLNPIPHFIDNNSSLN [PRP8]
5. VAEGKSKQDASPKPYAV [RPL8A]
6. YHGLYTNYEMSYWQKSY [LIN1]
7. PHLPFSKSENPVLSTIA [SWI3]
8. LELTTGATYRGKLVESE [SMD3]

Result:
1. 3.23
2. 3.22
3. 2.89
4. 2.4
5. 3.02
6. 2.17
7. 2.05
8. 3.38

Batch request: protein stability index per item, same order as input.
1. DQKPIEHIKEGSEIAIS [SWI3]
2. DFSLRYISNLLYGVTIC [REC8]
3. FDSVIVENLTVAQECIA [SMC1]
4. DPVLDWRKSDRELTKNI [SIR4]

Result:
2.92
1.5
1.27
2.26

Batch request: protein stability index per item, same order as input.
1. LRSTIANLLQINVDNDP [YML103C/NUP188]
2. NSRNAIRKLVKNGTIVK [RPL19A]

Result:
[1.15, 2.79]

###

I'd be grateful if you could share measured protein stability index for these entries.
Assay: protein stability index of a GFP-peptide fusion (yeast GPS) (PSI 1-4); higher = more stable; sorted into four equal gates, so the index is relative within each strain
Details: pdr5∆
Answers are plain numbers.

Answered cases to consult:
# sequence code, measured metric, value
rows = [
    ("SLQNNLQNNINNSNNNN [SNF11]", "protein stability index", 3.27),
    ("SGVPRLKEILNVAKNMK [RPO21]", "protein stability index", 1.83),
    ("YIFCISRTIGMVVNGPI [SCL1]", "protein stability index", 1.54),
    ("DIVPYFLKHNGEEDAVD [RPN1]", "protein stability index", 3.27),
    ("GMNLLSNLSQNVVPYHR [SWI1]", "protein stability index", 2.88),
    ("TVKTNDELMVIYISNLV [RPN8]", "protein stability index", 1.5),
    ("EKLLKELENNEFTENEL [ITC1]", "protein stability index", 3.21),
    ("ADAKAFLDSMAQKYASI [FAS2]", "protein stability index", 3.19),
    ("PSADGADKKDDSESNSE [ITC1]", "protein stability index", 3.11),
    ("SILRKSSPEEPFMSYSP [SNF12]", "protein stability index", 2.74),
]

Batch request: protein stability index per item, same order as input.
1. GGQGNTDDYFEELRDLY [FAS1]
2. HRWGTKKLPRKTHRGLR [RPL3]
3. VLLATWNLEKWREIIEK [IRR1]
4. YHFPIFNKYADPTLTTT [RPN4]
5. HTATDIYQTLIALNLDT [SNF2]

Result:
3.51
3.04
3.14
2.22
2.36
